Entries annotated with measured Ki
- experimental_protocol: Displacement of [20-3H]PDBu from GST-tagged mouse PKC-delta C1B domain L20R mutant expressed in Escherichia coli after 2 to 30 mins by polyethylene glycol precipitation assay in presence of phosphatidylserine
Give the quantity in µM, number only.

The examples below pair each entry with its known result.
{"molecule": "CC(C)(C)C(=O)OCC1(CO)C/C(=C\\c2ccc(C(=O)O)cc2)C(=O)O1 (stereo not given)", "units": "µM", "Ki": 6.14}
{"molecule": "CC(C)CC(CC(=O)OCC1(CO)C/C(=C\\c2cccc(C(=O)O)c2)C(=O)O1)CC(C)C (stereo not given)", "units": "µM", "Ki": 1.6}
{"molecule": "CC(C)CC(CC(=O)OCC1(CO)C/C(=C\\c2ccccc2C(C(=O)OC(C)(C)C)C(=O)OC(C)(C)C)C(=O)O1)CC(C)C (stereo not given)", "units": "µM", "Ki": 0.0173}

// query Quick one: Ki of CC(C)C(CC(=O)OCC1(CO)C/C(=C\c2cccc(O)c2)C(=O)O1)C(C)C (stereo not given) ?
// result 0.0194

// query Quick one: Ki of CCCC(=O)O[C@@H]1[C@@H](C)[C@@]2(O)[C@@H](C=C(CO)C[C@]3(O)C(=O)C(C)=C[C@@H]23)[C@@H]2C(C)(C)[C@]12OC(=O)CCC ?
// result 0.008

// query Quick one: Ki of CC(C)C(CC(=O)OCC1(CO)C/C(=C\c2ccc(O)cc2)C(=O)O1)C(C)C (stereo not given) ?
// result 0.0094

// query Quick one: Ki of CC(C)C(CC(=O)OCC1(CO)C/C(=C/c2ccc(C(=O)O)cc2)C(=O)O1)C(C)C (stereo not given) ?
// result 2.81

// query Quick one: Ki of CC(C)CC(C/C=C1\CC(CO)(COC(=O)C(C)(CO)CO)OC1=O)CC(C)C (stereo not given) ?
// result 0.81

// query Quick one: Ki of CC(C)CC(CC(=O)OCC1(CO)C/C(=C\c2ccc(C(C(=O)OC(C)(C)C)C(=O)OC(C)(C)C)cc2)C(=O)O1)CC(C)C (stereo not given) ?
// result 0.0105

// query Quick one: Ki of CC(C)C(CC(=O)OCC1(CO)C/C(=C\c2ccc(C(=O)O)cc2)C(=O)O1)C(C)C (stereo not given) ?
// result 6.9

// query Quick one: Ki of CC(C)CC(CC(=O)OCC1(CO)C/C(=C\c2cccc(C(C(=O)OC(C)(C)C)C(=O)OC(C)(C)C)c2)C(=O)O1)CC(C)C (stereo not given) ?
// result 0.0088

// query Quick one: Ki of CC(C)(C)C(=O)OCC1(CO)C/C(=C\c2cccc(C(=O)O)c2)C(=O)O1 (stereo not given) ?
// result 5.5

====

Entries annotated with measured Selectivity ratio
- Species on record: Mus musculus
- experimental_protocol: Selectivity ratio of Ki for GST-tagged mouse PKC-delta C1B domain L20R mutant to Kd for GST-tagged full-length mouse PKC-delta C1B domain

{"compound": "CC(C)CC(CC(=O)OCC1(CO)C/C(=C\\c2ccc(C(=O)O)cc2)C(=O)O1)CC(C)C (stereo not drawn)", "Selectivity ratio": 7.7}
{"compound": "CC(C)CC(CC(=O)OCC1(CO)C/C(=C\\c2cccc(C(C(=O)OC(C)(C)C)C(=O)OC(C)(C)C)c2)C(=O)O1)CC(C)C (stereo not drawn)", "Selectivity ratio": 17.6}

// query Quick one: Selectivity ratio of CC(C)(C)C(=O)OCC1(CO)C/C(=C\c2ccc(C(=O)O)cc2)C(=O)O1 (stereo not drawn) ?
// result 5.74

// query Quick one: Selectivity ratio of CC(C)CC(CC(=O)OCC1(CO)C/C(=C\c2ccccc2C(C(=O)OC(C)(C)C)C(=O)OC(C)(C)C)C(=O)O1)CC(C)C (stereo not drawn) ?
// result 17.3
